TARGET_SYSTEM: Beta-lactamase (Escherichia coli K-12)
Sequence (P00811 whole entry): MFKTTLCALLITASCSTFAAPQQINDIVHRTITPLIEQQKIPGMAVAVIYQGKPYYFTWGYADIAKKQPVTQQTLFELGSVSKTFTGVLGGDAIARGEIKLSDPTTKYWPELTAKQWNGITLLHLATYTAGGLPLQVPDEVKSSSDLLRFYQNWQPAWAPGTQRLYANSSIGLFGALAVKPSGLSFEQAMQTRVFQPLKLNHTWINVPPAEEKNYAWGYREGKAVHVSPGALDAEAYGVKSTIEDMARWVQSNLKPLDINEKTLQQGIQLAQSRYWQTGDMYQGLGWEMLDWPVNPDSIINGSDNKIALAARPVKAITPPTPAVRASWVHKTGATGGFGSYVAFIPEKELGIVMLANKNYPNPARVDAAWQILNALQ
ASSAY_COMMENT: In vitro inhibitory concentration against AmpC enzyme
OBSERVED_PROPERTY: pIC50
Kindly note that pIC50 refers to -log10 of the concentration in mol/L and answer with the value alone.

Query :: If you can, please state the reported pIC50 value of CC(=O)/C=C/CC1C(=O)N2[C@@H](C(=O)O)C(C)(C)S(=O)(=O)[C@@H]12 (stereo not given in full) .
Result :: 4.40

Query :: If you can, please state the reported pIC50 value of CC1(C)[C@H](C(=O)O)N2C(=O)[C@@H](Cc3cn(-c4ccccc4)nn3)[C@H]2S1(=O)=O .
Result :: 5.47

Query :: If you can, please state the reported pIC50 value of COC(=O)/C=C/CC1C(=O)N2[C@@H](C(=O)O)C(C)(C)S(=O)(=O)[C@@H]12 (stereo not given in full) .
Result :: 4.19

Query :: If you can, please state the reported pIC50 value of CC1(C)[C@H](C(=O)O)N2C(=O)[C@@H](Cc3cn(CC(N)Cc4ccc(O)cc4)nn3)[C@H]2S1(=O)=O (stereo not given in full) .
Result :: 5.18

// moving on: another record for pIC50
Query :: If you can, please state the reported pIC50 value of CC1(C)[C@H](C(=O)O)N2C(=O)[C@@H](Cc3cn(CC4CCCN4)nn3)[C@H]2S1(=O)=O (stereo not given in full) .
Result :: 5.28

###

TARGET_SYSTEM: Beta-lactamase TEM (Escherichia coli)
Sequence (P62593 whole entry): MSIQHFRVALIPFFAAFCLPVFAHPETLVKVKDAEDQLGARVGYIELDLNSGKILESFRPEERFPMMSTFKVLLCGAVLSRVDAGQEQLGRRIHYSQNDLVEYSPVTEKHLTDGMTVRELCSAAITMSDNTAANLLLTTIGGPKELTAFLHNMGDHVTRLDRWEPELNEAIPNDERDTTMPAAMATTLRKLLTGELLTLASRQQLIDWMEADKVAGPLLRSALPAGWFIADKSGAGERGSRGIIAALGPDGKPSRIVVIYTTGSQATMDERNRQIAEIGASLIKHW
ASSAY_COMMENT: In vitro inhibitory concentration against TEM-1 enzyme
Each entry below carries its reported pIC50.
Kindly note that pIC50 refers to -log10 of the concentration in mol/L and answer with the value alone.

As a guide, the following entries are already answered.
Query :: If you can, please state the reported pIC50 value of CC1(C)[C@H](C(=O)O)N2C(=O)C(C/C=C/C=O)[C@H]2S1(=O)=O (some centres undefined) .
Result :: 4.92

Query :: If you can, please state the reported pIC50 value of CC(=O)/C=C/CC1C(=O)N2[C@@H](C(=O)O)C(C)(C)S(=O)(=O)[C@H]12 (some centres undefined) .
Result :: 5.08

Query :: If you can, please state the reported pIC50 value of COC(=O)/C=C/CC1C(=O)N2[C@@H](C(=O)O)C(C)(C)S(=O)(=O)[C@H]12 (some centres undefined) .
Result :: 5.07

// moving on: another record for pIC50
Query :: If you can, please state the reported pIC50 value of CC1(C)[C@H](C(=O)O)N2C(=O)[C@@H](Cc3cn(-c4ccc(F)cc4)nn3)[C@H]2S1(=O)=O .
Result :: 5.80

###

Each entry below carries its reported pIC50.
TARGET_SYSTEM: Metallo-beta-lactamase type 2 (Bacteroides fragilis, UniProt P25910)
Sequence (P25910 whole entry): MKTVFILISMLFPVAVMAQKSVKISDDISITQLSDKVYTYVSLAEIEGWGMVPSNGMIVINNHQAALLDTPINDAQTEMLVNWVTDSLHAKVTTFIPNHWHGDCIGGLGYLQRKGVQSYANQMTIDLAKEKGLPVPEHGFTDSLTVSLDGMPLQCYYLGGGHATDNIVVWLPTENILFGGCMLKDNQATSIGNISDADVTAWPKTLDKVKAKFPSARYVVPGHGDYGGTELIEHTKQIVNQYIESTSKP
ASSAY_COMMENT: In vitro inhibitory concentration against CCRA enzyme
Kindly note that pIC50 refers to -log10 of the concentration in mol/L and answer with the value alone.

As a guide, the following entries are already answered.
Query :: If you can, please state the reported pIC50 value of CC1(C)[C@H](C(=O)O)N2C(=O)[C@@H](Cc3cn(CC(N)Cc4ccc(O)cc4)nn3)[C@H]2S1(=O)=O (some centres undefined) .
Result :: 4.62

Query :: If you can, please state the reported pIC50 value of CC1(C)[C@H](C(=O)O)N2C(=O)C(C/C=C/C#N)[C@@H]2S1(=O)=O (some centres undefined) .
Result :: 5.51

Query :: If you can, please state the reported pIC50 value of CC1(C)[C@H](C(=O)O)N2C(=O)[C@@H](Cc3cn(-c4ccc(N)cc4)nn3)[C@H]2S1(=O)=O .
Result :: 5.74

Query :: If you can, please state the reported pIC50 value of COC(=O)/C=C/CC1C(=O)N2[C@@H](C(=O)O)C(C)(C)S(=O)(=O)[C@@H]12 (some centres undefined) .
Result :: 5.85

Query :: If you can, please state the reported pIC50 value of CC(=O)/C=C/CC1C(=O)N2[C@@H](C(=O)O)C(C)(C)S(=O)(=O)[C@H]12 (some centres undefined) .
Result :: 4.15

Continuing:
Query :: If you can, please state the reported pIC50 value of CC1(C)[C@H](C(=O)O)N2C(=O)[C@@H](Cc3cn(-c4ccc(O)cc4)nn3)[C@H]2S1(=O)=O .
Result :: 5.68
